// provenance: ChEMBL document CHEMBL1134640

System Tested: Microsomal triglyceride transfer protein large subunit (Homo sapiens)
Method Notes: In vitro inhibition of human microsomal triglyceride transfer protein in HepG2 cells using apoB secretion assay
Assay type: functional, cell-based
Assay Metric: IC50 (nM)
Form entry: value (nM) — number only.

// query Returns the measured IC50 for the input compound. Input: O=C(NC1CCN(CCCCC2(C(=O)NCC(F)(F)F)c3ccccc3-c3ccccc32)CC1)c1ccccc1-c1ccc(C(F)(F)F)cc1 [LOMITAPIDE]
// result 0.8

====

System Tested: Microsomal triglyceride transfer protein large subunit (Homo sapiens, UniProt P55157)
Sequence (P55157 whole entry): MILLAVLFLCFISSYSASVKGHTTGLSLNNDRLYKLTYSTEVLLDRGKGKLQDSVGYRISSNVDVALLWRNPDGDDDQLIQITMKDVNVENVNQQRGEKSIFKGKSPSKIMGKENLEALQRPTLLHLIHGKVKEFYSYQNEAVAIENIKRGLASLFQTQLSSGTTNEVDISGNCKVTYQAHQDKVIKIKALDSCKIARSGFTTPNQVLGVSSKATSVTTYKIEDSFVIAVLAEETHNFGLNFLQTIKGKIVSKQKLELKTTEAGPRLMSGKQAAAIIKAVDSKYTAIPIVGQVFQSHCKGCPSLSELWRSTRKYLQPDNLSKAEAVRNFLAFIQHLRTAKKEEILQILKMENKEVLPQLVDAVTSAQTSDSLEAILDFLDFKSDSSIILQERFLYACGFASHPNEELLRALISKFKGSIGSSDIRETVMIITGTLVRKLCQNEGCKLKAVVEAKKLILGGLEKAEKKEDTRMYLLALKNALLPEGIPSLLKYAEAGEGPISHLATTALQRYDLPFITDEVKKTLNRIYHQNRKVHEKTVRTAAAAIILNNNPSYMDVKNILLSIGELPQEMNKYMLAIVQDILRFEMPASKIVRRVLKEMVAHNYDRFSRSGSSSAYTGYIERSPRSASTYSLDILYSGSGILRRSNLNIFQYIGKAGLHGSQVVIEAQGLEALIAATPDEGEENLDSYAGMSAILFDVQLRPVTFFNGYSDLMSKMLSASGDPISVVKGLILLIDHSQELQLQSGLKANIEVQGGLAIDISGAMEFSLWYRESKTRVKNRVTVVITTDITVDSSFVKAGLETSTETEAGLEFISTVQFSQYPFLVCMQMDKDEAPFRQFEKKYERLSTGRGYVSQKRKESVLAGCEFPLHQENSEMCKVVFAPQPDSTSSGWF
Method Notes: In vitro inhibition of human Microsomal Triglyceride Transfer Protein, (triglyceride transfer assay)
pIC50 for assorted compounds
Kindly note that pIC50 refers to -log10 of the concentration in mol/L and answer with the value alone.

Some compounds with known pIC50 results, for comparison:
// query May I ask what pIC50 has been recorded for O=C(Nc1cccc2c1ncn2CCCC1(C(=O)NCC(F)(F)F)c2ccccc2-c2ccccc21)c1ccccc1-c1ccc(C(F)(F)F)cc1 ?
// result 8.00

// query Report pIC50 for Cc1ccc2c(ncn2CCCCC2(C(=O)NCC(F)(F)F)c3ccccc3-c3ccccc32)c1NC(=O)c1ccccc1-c1ccc(C(F)(F)F)cc1 please.
// result 9.00

Next:
// query Returns the measured pIC50 for the input compound. Input: Cc1ccc2c(nc(C)n2CCCCC2(C(=O)NCC(F)(F)F)c3ccccc3-c3ccccc32)c1NC(=O)c1ccccc1-c1ccc(C(F)(F)F)cc1
// result 9.00

// query Data request, read-out pIC50, for CCCc1nc2c(NC(=O)c3ccccc3-c3ccc(C(F)(F)F)cc3)cccc2n1CCCCC1(C(=O)NCC(F)(F)F)c2ccccc2-c2ccccc21
// result 8.70

// query Please give the measured pIC50 for this compound: CC(C)c1nc2c(NC(=O)c3ccccc3-c3ccc(C(F)(F)F)cc3)cccc2n1CCCCC1(C(=O)NCC(F)(F)F)c2ccccc2-c2ccccc21
// result 8.40

// query # pIC50 lookup, item Cc1nc2c(NC(=O)c3ccccc3-c3ccc(C(F)(F)F)cc3)cccc2n1CCCCC1(C(=O)NCC(F)(F)F)c2ccccc2-c2ccccc21
// result 9.00
